# TARGET OF ASSAY: T1, extracellular domain (ECD) of human CD47 (19aa-139aa) with C-terminal 6xHis tag (human, UniProt Q08722 19-139)
# T1 construct: also called recombinant CD47; recombinant human CD47
# T1 sequence (Q08722 other isoform, or with tags, fused parts or gaps limits assumed): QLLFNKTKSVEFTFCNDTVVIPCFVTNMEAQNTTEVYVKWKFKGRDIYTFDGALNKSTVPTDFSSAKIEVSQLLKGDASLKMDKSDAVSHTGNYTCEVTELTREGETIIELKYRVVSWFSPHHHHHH
# ASSAY TEXT: ELISA on recombinant human CD47; legend: NB: not bound
MEASURED PARAMETER: binding result

hu.18B9.3i HC_D95A (antibody, name in Kabat numbering, V domains shown, Alanine scan variant of hu.18B9.3i; Kabat numbering) VH: EVQLVESGGGLVQPGGSLRLSCAASGFSFNSGYMSWVRQAPGKGLEWIASIYAGSSGKTYYADWAKGRFTISKTSSKTTVYLQMNSLRAEDTAVYYCARASGGTYYTDYLYLWGQGTLVTVSS VL: DIQMTQSPSSLSASVGDRVTITCRASEGISSYLSWYQQKPGKAPKLLIYKASTLTSGVPSRFSGSGSGTDFTLTISSLQPEDFATYYCQSTYGSSGSSGYGAAFGGGTKVEIK    no binding
hu.18B9.3i HC_G98A (antibody, name in Kabat numbering, V domains shown, Alanine scan variant of hu.18B9.3i; Kabat numbering) VH: EVQLVESGGGLVQPGGSLRLSCAASGFSFNSGYMSWVRQAPGKGLEWIASIYAGSSGKTYYADWAKGRFTISKTSSKTTVYLQMNSLRAEDTAVYYCARDSGATYYTDYLYLWGQGTLVTVSS VL: DIQMTQSPSSLSASVGDRVTITCRASEGISSYLSWYQQKPGKAPKLLIYKASTLTSGVPSRFSGSGSGTDFTLTISSLQPEDFATYYCQSTYGSSGSSGYGAAFGGGTKVEIK    no binding
hu.18B9.3i HC_G97A (antibody, name in Kabat numbering, V domains shown, Alanine scan variant of hu.18B9.3i; Kabat numbering) VH: EVQLVESGGGLVQPGGSLRLSCAASGFSFNSGYMSWVRQAPGKGLEWIASIYAGSSGKTYYADWAKGRFTISKTSSKTTVYLQMNSLRAEDTAVYYCARDSAGTYYTDYLYLWGQGTLVTVSS VL: DIQMTQSPSSLSASVGDRVTITCRASEGISSYLSWYQQKPGKAPKLLIYKASTLTSGVPSRFSGSGSGTDFTLTISSLQPEDFATYYCQSTYGSSGSSGYGAAFGGGTKVEIK    no binding
hu.18B9.3i HC_D100c_A (antibody, V domains shown, Alanine scan variant of hu.18B9.3i; Kabat numbering) VH: EVQLVESGGGLVQPGGSLRLSCAASGFSFNSGYMSWVRQAPGKGLEWIASIYAGSSGKTYYADWAKGRFTISKTSSKTTVYLQMNSLRAEDTAVYYCARDSGGTYYTAYLYLWGQGTLVTVSS VL: DIQMTQSPSSLSASVGDRVTITCRASEGISSYLSWYQQKPGKAPKLLIYKASTLTSGVPSRFSGSGSGTDFTLTISSLQPEDFATYYCQSTYGSSGSSGYGAAFGGGTKVEIK    no binding
